Experiment: self-splicing fitness, log relative to wild type (ln ratio); higher = more splicing; Tetrahymena group I intron in knt gene, E. coli kanamycin selection, DiMSum; sequences stand for … in CUCUCU…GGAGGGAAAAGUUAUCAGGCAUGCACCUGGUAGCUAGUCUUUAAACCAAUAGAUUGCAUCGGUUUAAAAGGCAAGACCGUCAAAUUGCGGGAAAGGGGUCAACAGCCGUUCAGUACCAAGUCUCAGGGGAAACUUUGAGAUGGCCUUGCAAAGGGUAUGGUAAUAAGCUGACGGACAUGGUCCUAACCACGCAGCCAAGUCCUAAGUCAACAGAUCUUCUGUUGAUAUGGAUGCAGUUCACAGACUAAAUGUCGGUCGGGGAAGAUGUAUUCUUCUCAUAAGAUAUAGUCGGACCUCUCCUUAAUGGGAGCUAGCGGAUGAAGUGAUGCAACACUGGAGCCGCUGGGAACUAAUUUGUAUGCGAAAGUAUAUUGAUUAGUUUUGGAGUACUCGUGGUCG;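 also: selection with 25 µg/mL kanamycin versus none on LB agar overnight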
Details: 30 °C
Output yes (1) for self-splicing fitness (ln) not less than -3; output no (0) otherwise.

residueCodes: AUUUAGCAAUAUUACGAAUC
cat: no (0)
//
residueCodes: GAGCAGCAAUAUUACGCGCG
cat: yes (1)
//
residueCodes: GAACAGCAAUAUUACGAGUU
cat: yes (1)
//
residueCodes: CGCUAGCAAUAUUACGGUGC
cat: no (0)
//
residueCodes: UGAAAGCAAUAUUACGGCUC
cat: yes (1)
//
residueCodes: GUGAAGCAAUAUUACGGAGC
cat: no (0)
//
residueCodes: GCUGAGCAAUAUUACGAGUG
cat: yes (1)
//
residueCodes: UUGAAGCAAUAUUACGACUC
cat: yes (1)
//
residueCodes: AUGCAGCAAUAUUACGGGUG
cat: no (0)
//
residueCodes: CAUAAGCAAUAUUACGAACG
cat: yes (1)

Please tell me: is the sequence CCAAAGCAAUAUUACGGAAA at or over -3 in terms of self-splicing fitness (ln)? yes (1)

Is the recorded value of self-splicing fitness (ln) equal to or greater than -3 for this sequence? CAUAAGCAAUAUUACGUUGG yes (1)

Check the entry GGUGAGCAAUAUUACGAGAG : does self-splicing fitness (ln) equal or exceed -3? no (0)

Confirm if self-splicing fitness (ln) reported for the sequence CCGAAGCAAUAUUACGCCUC is -3 or above. yes (1)

Record AUGCAGCAAUAUUACGCGUU ; criterion: self-splicing fitness (ln) no lower than -3. Met? yes (1)

Check this sequence for self-splicing fitness (ln) at or above -3: AGCCAGCAAUAUUACGCUCC yes (1)

Check if self-splicing fitness (ln) >= -3 (inclusive). Item: GUUCAGCAAUAUUACGCAUG yes (1)

// inclusive: self-splicing fitness (ln) at least -3? input: CUGCAGCAAUAUUACGCACU no (0)

Textbook exercise: given the entry CCAAAGCAAUAUUACGUCUU , state whether its self-splicing fitness (ln) is greater than or equal to -3. no (0)

----------
Experiment: self-splicing fitness, log relative to wild type (ln ratio); higher = more splicing; Tetrahymena group I intron in knt gene, E. coli kanamycin selection, DiMSum; sequences stand for … in CUCUCU…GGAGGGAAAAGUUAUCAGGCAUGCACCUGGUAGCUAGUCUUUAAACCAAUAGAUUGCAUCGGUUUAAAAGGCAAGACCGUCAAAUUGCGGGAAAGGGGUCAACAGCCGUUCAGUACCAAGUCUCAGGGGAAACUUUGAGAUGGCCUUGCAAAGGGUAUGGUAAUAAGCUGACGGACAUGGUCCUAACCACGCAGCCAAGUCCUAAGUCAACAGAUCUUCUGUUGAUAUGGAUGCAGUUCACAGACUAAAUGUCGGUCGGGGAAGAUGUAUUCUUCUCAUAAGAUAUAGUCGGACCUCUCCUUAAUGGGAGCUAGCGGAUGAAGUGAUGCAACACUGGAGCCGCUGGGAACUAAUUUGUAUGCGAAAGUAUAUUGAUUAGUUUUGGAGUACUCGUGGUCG
Details: 37 °C
valueType: self-splicing fitness (ln)
Numbers only.

Would you be so kind as to report self-splicing fitness (ln) for each listed record?
1. CCAGAGCAAUAUUACGCCUU
2. UACUAGCAAUAUUACGAGGA
3. CCAGAGCAAUAUUACGGGCG
4. UUCUAGCAAUAUUACGAUUC

1: -2.37; 2: -1.54; 3: -0.383; 4: -2.5

Here are 6 sequences. What values of self-splicing fitness (ln) were reported for them?
1. CAAAAGCAAUAUUACGACUC
2. GUGGAGCAAUAUUACGGAAC
3. UACAAGCAAUAUUACGUUAU
4. GCGUAGCAAUAUUACGGGGG
5. CGGAAGCAAUAUUACGAACG
6. AUCGAGCAAUAUUACGCGUG

-0.245
-0.66
-1.81
-1.78
-0.802
-1.2

Each sequence below has a reported value. Please supply its self-splicing fitness (ln).
1. GAAUAGCAAUAUUACGGCAC
2. CGCCAGCAAUAUUACGUUUG

-0.000648
-0.629

Could you report self-splicing fitness (ln) for every entry in the following list?
1. AUUAAGCAAUAUUACGACGU
2. UCUUAGCAAUAUUACGAAAU
3. GCUCAGCAAUAUUACGUCUC
4. UGGAAGCAAUAUUACGUGGA
5. UGCGAGCAAUAUUACGCUAU
6. CGAUAGCAAUAUUACGGUCC
7. CAAUAGCAAUAUUACGAGCG
8. GCGAAGCAAUAUUACGGGCA

[0.495, -3.09, -0.754, -0.926, -2.46, -0.541, 0.281, -0.529]

Provide self-splicing fitness (ln) value for the following sequence: UCCUAGCAAUAUUACGUGGC -1.78
